# test.method.notes: Pharmacokinetic study of RXFP2 mAbs in rat
# Format: in vivo, Wistar Han rats
# settings: male Wistar Han rats, 1 mg/kg s.c., n = 3, mean ± SD
# Procedure: For the pharmacokinetic study of RXFP2 mAbs in rat, 1G1, 2D4, 4B1, 4G6, 1F2, and 3F3 were prepared in phosphate buffered saline (0.100 mg/mL) with low endotoxin (≤ 0.76 EU/mL). […] Frozen rat plasma samples were thawed and analyzed using a qualified analytical method based on sample dilution, followed by Electrochemiluminescence immunoassay analysis. […] RXFP2 mAbs were captured with LDLa protein and detected with sulfo-tag labeled mouse anti-rat IgG2b. […]
endpoint.name: AUClast

Value lookup for AUClast; key = 2D4: RXFP2 monoclonal antibody from hybridoma, recombinantly expressed in a rat IgG2b backbone (antibody, V domains shown) VH: QVQLKESGPGLVAPSQSLSITCTVSGFSLTTYGISWVRQPPGKGLEWLGVIWTGGGTNYNSALKSRLSISKDNSKSQVFLKMNSLQTDDTARYYCARTEGYYVMDYWGQGTSVTVSS VL: DIQMTQSPASLSVSVGETVTITCRASENIYSNLVWYQQKQGKSPQLLVYAATNLADGVPSRFSGSGSGTQYSLKINNLQSEDFGTYYCQHFWGPPWTFGGGTKLEIK 3210 ± 463 µg·h/mL
